Tested on: DMS-114 (FGFR1 overexpression) cells
Assay: cell proliferation assay (CellTiterGlo), DMS-114 cells
Assay type: cell-based
Details: Homo sapiens, DMS-114, 72 h
pIC50: −log10 of the molar value.
recordedEndpoint: pIC50

>  <molecule>
Cc1nc2ccc(Oc3ccc4ncc(-c5cnn([C@H]6C[C@H](N7C[C@H]8C[C@@H]7CO8)C6)c5)nc4c3Cl)cc2[nH]1

>  <recordedEndpoint>
pIC50

>  <valueMeasured>
6.40 to 7.00

$$$$
>  <molecule>
Cc1nc2ccc(Oc3ccc4ncc(-c5cnn([C@H](C)C6CCC(F)(F)CC6)c5)nc4c3Cl)cc2[nH]1

>  <recordedEndpoint>
pIC50

>  <valueMeasured>
≤ 6.40

$$$$
>  <molecule>
Cc1nc2ccc(Oc3ccc4ncc(-c5cnn([C@H]6CC[C@H](N7CCC7)CC6)c5)nc4c3Cl)cc2[nH]1

>  <recordedEndpoint>
pIC50

>  <valueMeasured>
6.40 to 7.00

$$$$
>  <molecule>
Cc1nc2ccc(Oc3ccc4ncc(-c5cnn(C6CC7(C6)OCCO7)c5)nc4c3Cl)cc2[nH]1

>  <recordedEndpoint>
pIC50

>  <valueMeasured>
≤ 6.40

$$$$
>  <molecule>
Cc1nc2ccc(Oc3ccc4ncc(-c5cnn(C6CCCN(C)C6)c5)nc4c3Cl)cc2[nH]1 (stereo not drawn)

>  <recordedEndpoint>
pIC50

>  <valueMeasured>
≤ 6.40

$$$$
>  <molecule>
Clc1c(Oc2ccn3cncc3c2)ccc2ncc(-c3cnn(CC4CCN(C5COC5)CC4)c3)nc12

>  <recordedEndpoint>
pIC50

>  <valueMeasured>
≤ 6.40

$$$$

Quick request: pIC50 for each listed item, please.
1. COC1CCN(C(=O)Cn2cc(-c3cnc4ccc(Oc5ccc6nc(C)[nH]c6c5)c(Cl)c4n3)cn2)C1 (stereo not drawn)
2. CCOC(Cn1cc(-c2cnc3ccc(Oc4ccc5nc(C)[nH]c5c4)c(Cl)c3n2)cn1)OCC
3. Cc1nc2ccc(Oc3ccc4ncc(-c5cnn(C6CCN(CC(N)=O)CC6)c5)nc4c3Cl)cc2[nH]1

≤ 6.40
≤ 6.40
≤ 6.40

Would you mind giving pIC50 for every molecule in the list below?
1. Cc1nc2ccc(Oc3ccc4ncc(-c5cnn(CC6CCNCC6(F)F)c5)nc4c3Cl)cc2[nH]1 (stereo not drawn)
2. Cc1nc2ccc(Oc3ccc4ncc(-c5cnn(CC6CC(F)(F)C6)c5)nc4c3C3=CCOC3)c(F)c2[nH]1

1: ≤ 6.40; 2: 6.40 to 7.00

Measured pIC50, `Cc1nc2ccc(Oc3ccc4ncc(-c5cnn(CC6(O)CC6)c5)nc4c3C3=CCCC3)cc2[nH]1` : 7.00 to 7.70

----------
System: DMS-114 (FGFR1 overexpression) cells
Assay: cell proliferation assay (CellTiterGlo), DMS-114 cells
Format: cell-based
Conditions: Homo sapiens, DMS-114, 72 h
pIC50: −log10 of the molar value.
recordedEndpoint: pIC50

// worked examples, pIC50 included
>  <compound>
Cc1nc2ccc(Oc3ccc4ncc(-c5cnn(CC6CC(F)(F)C6)c5)nc4c3N3CCOC3=O)c(F)c2[nH]1 [Compound 95]

>  <pIC50>
≤ 6.40

$$$$
>  <compound>
Cc1nc2ccc(Oc3ccc4ncc(-c5cnn(C[C@]67C[C@H](CO6)C7)c5)nc4c3Cl)cc2[nH]1 [Compound 337]

>  <pIC50>
≤ 6.40

$$$$
>  <compound>
CCC(=O)N1CCC(CCn2cc(-c3cnc4ccc(Oc5ccc6nc(C)[nH]c6c5)c(Cl)c4n3)cn2)CC1 [Compound 300]

>  <pIC50>
≤ 6.40

$$$$
>  <compound>
Cc1nc2ccc(Oc3ccc4ncc(-c5cnn(CC6CC(O)C6)c5)nc4c3Cl)cc2[nH]1 (stereo not drawn) [Compound 325]

>  <pIC50>
≤ 6.40

$$$$
>  <compound>
Cc1nc2ccc(Oc3ccc4ncc(-c5cnn(CC6CCC(F)(F)CC6)c5)nc4c3Cl)c(F)c2[nH]1 [Compound 152]

>  <pIC50>
6.40 to 7.00

$$$$
>  <compound>
Cc1nc2ccc(Oc3ccc4ncc(-c5cnn([C@H]6C[C@@](C)(O)C6)c5)nc4c3Cl)cc2[nH]1 [Compound 168]

>  <pIC50>
≤ 6.40

$$$$
>  <compound>
Cc1nc2cc(Oc3ccc4ncc(-c5cnn(CC6(O)CCNCC6)c5)nc4c3Cl)ccc2[nH]1 [Compound 349]

>  <pIC50>
≤ 6.40

$$$$
>  <compound>
Cc1nc2ccc(Oc3ccc4ncc(-c5cnn(CC(=O)N6CCOCC6)c5)nc4c3Cl)cc2[nH]1 [Compound 285]

>  <pIC50>
≤ 6.40

$$$$
>  <compound>
Cc1nc2ccc(Oc3ccc4ncc(-c5cnn(C6CN(C7COC7)C6)c5)nc4c3Cl)cc2[nH]1 [Compound 237]

>  <pIC50>
6.40 to 7.00

$$$$
>  <compound>
Cc1nc2ccc(Oc3ccc4ncc(-c5cnn(CC6CCC(F)(F)C6)c5)nc4c3Cl)cc2[nH]1 (stereo not drawn) [Compound 286]

>  <pIC50>
≤ 6.40

$$$$

Report pIC50 for every entry below.
1. Cc1nc2ccc(Oc3ccc4ncc(-c5cnn(C6CC(=O)C6)c5)nc4c3Cl)cc2[nH]1 [Compound 242]
2. Cc1nc2ccc(Oc3ccc4ncc(-c5cnn(C6CCNC(C)(C)C6)c5)nc4c3Cl)cc2[nH]1 (stereo not drawn) [Compound 249]

1. ≤ 6.40
2. ≤ 6.40

Could you tell me pIC50 for each of these compounds? They are listed below.
1. Cc1nc2ccc(Oc3ccc4ncc(-c5cnn(C[C@H]6C[C@](C)(O)C6)c5)nc4c3Cl)cc2[nH]1 [Compound 181]
2. Cc1nc2ccc(Oc3ccc4ncc(-c5cnn(C(C)(C)CO)c5)nc4c3Cl)cc2[nH]1 [Compound 359]
3. Cc1nc2ccc(Oc3ccc4ncc(-c5cnn([C@H]6C[C@H](N7CCOCC7)C6)c5)nc4c3Cl)cc2[nH]1 [Compound 324]

1. ≤ 6.40
2. ≤ 6.40
3. ≤ 6.40

----------
System: DMS-114 (FGFR1 overexpression) cells
Assay: cell proliferation assay (CellTiterGlo), DMS-114 cells
Type: cell-based
Conditions: Homo sapiens, DMS-114, 72 h
pIC50: −log10 of the molar value.
recordedEndpoint: pIC50

Field: example entries. Status: answers known.
>  <molecule>
Cc1nc2ccc(Oc3ccc4ncc(-c5cnn(CCN6CCC(F)(F)C6)c5)nc4c3Cl)cc2[nH]1

>  <assaySystem>
DMS-114 (FGFR1 overexpression) cells

>  <pIC50>
≤ 6.40

$$$$
>  <molecule>
Cc1nc2ccc(Oc3ccc4ncc(-c5cnn(CC6CC(F)(F)C6)c5)nc4c3-c3ccoc3)c(F)c2[nH]1

>  <assaySystem>
DMS-114 (FGFR1 overexpression) cells

>  <pIC50>
6.40 to 7.00

$$$$
>  <molecule>
Cc1nc2ccc(Oc3ccc4ncc(-c5cnn([C@H]6C[C@@H](N7CC(O)C7)C6)c5)nc4c3Cl)cc2[nH]1

>  <assaySystem>
DMS-114 (FGFR1 overexpression) cells

>  <pIC50>
6.40 to 7.00

$$$$
>  <molecule>
Cc1nc2ccc(Oc3ccc4ncc(-c5cnn(CCC6CCS(=O)(=O)C6)c5)nc4c3Br)cc2[nH]1 (stereo not drawn)

>  <assaySystem>
DMS-114 (FGFR1 overexpression) cells

>  <pIC50>
≤ 6.40

$$$$
>  <molecule>
Cc1nc2ccc(Oc3ccc4ncc(-c5cnn(CCO)c5)nc4c3Cl)c(F)c2[nH]1

>  <assaySystem>
DMS-114 (FGFR1 overexpression) cells

>  <pIC50>
≤ 6.40

$$$$
>  <molecule>
Cc1cc2cc(Oc3ccc4ncc(-c5cnn(CC6CCN(C)CC6)c5)nc4c3Cl)ccn2n1

>  <assaySystem>
DMS-114 (FGFR1 overexpression) cells

>  <pIC50>
≤ 6.40

$$$$
>  <molecule>
Cc1nc2ccc(Oc3ccc4ncc(-c5cnn(C6(C)CC=C(F)CC6)c5)nc4c3Cl)cc2[nH]1 (stereo not drawn)

>  <assaySystem>
DMS-114 (FGFR1 overexpression) cells

>  <pIC50>
≤ 6.40

$$$$
>  <molecule>
C=C1COC(Cn2cc(-c3cnc4ccc(Oc5ccc6nc(C)[nH]c6c5)c(Cl)c4n3)cn2)OC1

>  <assaySystem>
DMS-114 (FGFR1 overexpression) cells

>  <pIC50>
≤ 6.40

$$$$

Go through the items and report each one's pIC50.
1. Cc1nc2ccc(Oc3ccc4ncc(-c5cnn(C6CN(C(=O)N7CCC7)C6)c5)nc4c3Cl)cc2[nH]1
2. COC1(Cn2cc(-c3cnc4ccc(Oc5ccc6nc(C)[nH]c6c5)c(Cl)c4n3)cn2)CC1
3. CC(=O)N1CCCC(n2cc(-c3cnc4ccc(Oc5ccc6nc(C)[nH]c6c5)c(Cl)c4n3)cn2)C1 (stereo not drawn)
4. Cc1nc2ccc(Oc3ccc4ncc(-c5cnn(CC(C)(C)C(N)=O)c5)nc4c3Cl)cc2[nH]1
5. Cc1nc2ccc(Oc3ccc4ncc(-c5cnn(C6CN(c7cncc(F)c7)C6)c5)nc4c3Cl)cc2[nH]1
6. Cc1nc2ccc(Oc3ccc4ncc(-c5cnn([C@H]6CC7(C[C@@H](O)C7)C6)c5)nc4c3Cl)c(F)c2[nH]1 (stereo partly drawn)

1. ≤ 6.40
2. ≤ 6.40
3. ≤ 6.40
4. ≤ 6.40
5. ≤ 6.40
6. 6.40 to 7.00

The value of pIC50 measured for the molecule `Cc1nc2ccc(Oc3ccc4ncc(-c5cnn(CCC6CCN(C7COC7)CC6)c5)nc4c3Cl)cc2[nH]1` turned out to be 6.40 to 7.00
